Method Summary: Single oral dose plasma PK in fasted dogs
Format: in vivo, dog
Condition Context: male, beagle, dog, plasma, po, 5 mg/kg, 3M, 5 mg/kg PO, 0.5% HPMC suspension, Study 4
Value Kind: AUC(0-t) (ng·h/mL)
One number for each entry, in ng·h/mL.

[in] Entry under review: O=C(Nc1ccnc(C(F)(F)F)c1)c1cnn(-c2cccc3c(=O)[nH]ccc23)c1C(F)(F)F . Reported AUC(0-t)?
[out] 43700

====

Method Summary: Single oral dose plasma PK in fasted dogs
Type: in vivo, dog
Condition Context: beagle, dog, plasma, po, 5 mg/kg, 5 mg/kg PO, -ZAF salt nanosuspension (HPMC:DOSS suspension), Study 5
Value Kind: bioavailability

[in] Entry under review: O=C(Nc1ccnc(C(F)(F)F)c1)c1cnn(-c2cccc3c(=O)[nH]ccc23)c1C(F)(F)F . Reported bioavailability?
[out] 12 to 69%

Source: patent US20240299376A1
